procedure summary: WHO-TDR: Cytotoxicity
Assay type: toxicity, cell-based
condition summary: human, MRC5 cells
Reported IC50 values follow for various compounds

• CN(C)CCN(C(=O)c1cccc(N2C(=O)CCC2=O)c1)c1nc2ccc(Br)cc2s1 = > 16.1 mg/L
• O=C(NCc1nnnn1-c1ccc(Cl)cc1)C1c2ccccc2Oc2ccccc21 = > 12.5 mg/L
• CN(C)CCN(C(=O)CCSc1ccccc1)c1nc2c(Cl)cccc2s1 = > 13.7 mg/L
• CS(=O)(=O)NCC(c1ccco1)S(=O)(=O)c1ccc(Cl)cc1 (configuration not stated) = > 10.9 mg/L

We next turn to a different compound, shown below.
IN: Indicate the recorded IC50 value for this compound: CN1CCN(C(CNC(=O)COc2ccccc2F)c2ccc3c(c2)CCN3C)CC1 (configuration not stated)
OUT: > 12.8 mg/L
